Item-by-item account of yeast fitness
B1: tRNA (parent)
chain: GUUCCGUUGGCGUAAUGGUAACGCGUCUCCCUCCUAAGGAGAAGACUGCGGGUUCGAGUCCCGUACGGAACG

# Variants of: B1
# assayDetails: yeast fitness relative to wild type (ratio to wild type); higher = fitter; tRNA-Arg(CCU), competitive growth, 37 C, YPD
This sample holds only a part of the variants without activity.
measureName: yeast fitness

[[record]]
variantspec = "U2C U8C A20U U28A G67U"
qualifiersign = "≤"
recordedmeasurement = 0.5

[[record]]
variantspec = "C11U A15G A65C"
qualifiersign = "="
recordedmeasurement = 0.713

[[record]]
variantspec = "U2A C29A A45U U59C"
qualifiersign = "="
recordedmeasurement = 0.575

[[record]]
variantspec = "C31A U54C"
qualifiersign = "="
recordedmeasurement = 0.562

[[record]]
variantspec = "A14G G23A U64G A69U"
qualifiersign = "≤"
recordedmeasurement = 0.5

[[record]]
variantspec = "G9C C11U G18C C31A A57G"
qualifiersign = "≤"
recordedmeasurement = 0.5

[[record]]
variantspec = "C30G U32C"
qualifiersign = "="
recordedmeasurement = 0.708

[[record]]
variantspec = "U3A C31A C55U"
qualifiersign = "≤"
recordedmeasurement = 0.5

[[record]]
variantspec = "C5A G25C G56C"
qualifiersign = "≤"
recordedmeasurement = 0.5

[[record]]
variantspec = "U3C A21U C34A G52A C61G G63A"
qualifiersign = "≤"
recordedmeasurement = 0.5

[[record]]
variantspec = "G6A G18C C49U C61G"
qualifiersign = "≤"
recordedmeasurement = 0.5

[[record]]
variantspec = "C30U C55A"
qualifiersign = "="
recordedmeasurement = 0.667

[[record]]
variantspec = "G6A G18A C22U"
qualifiersign = "="
recordedmeasurement = 0.6

[[record]]
variantspec = "U13G A42C"
qualifiersign = "="
recordedmeasurement = 1

[[record]]
variantspec = "C34U C55A"
qualifiersign = "="
recordedmeasurement = 0.623

[[record]]
variantspec = "G17C G18C G44C U59A"
qualifiersign = "≤"
recordedmeasurement = 0.5

[[record]]
variantspec = "C29G G38A"
qualifiersign = "="
recordedmeasurement = 0.614

[[record]]
variantspec = "U2G C31U G48C G67C"
qualifiersign = "="
recordedmeasurement = 0.702

[[record]]
variantspec = "C11U U16C G23A A36C"
qualifiersign = "≤"
recordedmeasurement = 0.5

[[record]]
variantspec = "U28G A57U G63A"
qualifiersign = "="
recordedmeasurement = 0.874

[[record]]
variantspec = "G9A C11G U13G G23C C34U C55U"
qualifiersign = "≤"
recordedmeasurement = 0.5

[[record]]
variantspec = "G6C A15G G58C G68A"
qualifiersign = "≤"
recordedmeasurement = 0.5

[[record]]
variantspec = "C11G G23C A37G A57C"
qualifiersign = "="
recordedmeasurement = 0.979

[[record]]
variantspec = "G17A C29U G67A"
qualifiersign = "="
recordedmeasurement = 0.553

[[record]]
variantspec = "A37G G38C G52A C61U"
qualifiersign = "="
recordedmeasurement = 0.653

[[record]]
variantspec = "C27G A45C C49U G52A U59C"
qualifiersign = "="
recordedmeasurement = 0.6

[[record]]
variantspec = "G17C A20C"
qualifiersign = "="
recordedmeasurement = 0.54

[[record]]
variantspec = "G38A U47C"
qualifiersign = "="
recordedmeasurement = 0.837

[[record]]
variantspec = "G9A G39A A45G G50A G63U A69U"
qualifiersign = "≤"
recordedmeasurement = 0.5

[[record]]
variantspec = "U13A U59A"
qualifiersign = "="
recordedmeasurement = 0.827

[[record]]
variantspec = "A21C A42G"
qualifiersign = "="
recordedmeasurement = 0.751

[[record]]
variantspec = "A14C C30A C31G U64A"
qualifiersign = "="
recordedmeasurement = 0.584

[[record]]
variantspec = "C5A U7C G48C"
qualifiersign = "≤"
recordedmeasurement = 0.5

[[record]]
variantspec = "A36G G38C U59A"
qualifiersign = "≤"
recordedmeasurement = 0.5

[[record]]
variantspec = "A21G A36C"
qualifiersign = "="
recordedmeasurement = 0.557

[[record]]
variantspec = "C5G G25A G56A"
qualifiersign = "="
recordedmeasurement = 0.803

[[record]]
variantspec = "A37U G38A"
qualifiersign = "="
recordedmeasurement = 0.631

[[record]]
variantspec = "U16A A21C C30G A36G G51C G52A"
qualifiersign = "≤"
recordedmeasurement = 0.5

[[record]]
variantspec = "C4U U7A G39C"
qualifiersign = "≤"
recordedmeasurement = 0.5

[[record]]
variantspec = "C4G G41A A43C"
qualifiersign = "≤"
recordedmeasurement = 0.5

[[record]]
variantspec = "G6A A20C C31U C33G"
qualifiersign = "≤"
recordedmeasurement = 0.5

[[record]]
variantspec = "U28A C55G C62U"
qualifiersign = "≤"
recordedmeasurement = 0.5

[[record]]
variantspec = "C31A A43U C61A"
qualifiersign = "≤"
recordedmeasurement = 0.5

[[record]]
variantspec = "C4U C11U G23C A37U G44A"
qualifiersign = "≤"
recordedmeasurement = 0.5

[[record]]
variantspec = "C11G C24G C60A G68A"
qualifiersign = "≤"
recordedmeasurement = 0.5

[[record]]
variantspec = "C29G G44A G56C C62A G67C"
qualifiersign = "≤"
recordedmeasurement = 0.5

